The entries below come with measured protein stability index values attached.
B1: SPATS1 (parent)
chain: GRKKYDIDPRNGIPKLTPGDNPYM

- Variants of: B1
- assay_comment: protein stability index of a GFP-peptide fusion (GPS, HEK-293T) (PSI 1-6); higher = more stable;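 further: lentivirally expressed fusions sorted by FACS into six bins by GFP to DsRed ratio, PSI derived from sequencing read proportions per bin multiplied by bin number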
- test_settings: c terminus: a fixed tail appended
Form: value (number only, do not type unit).

Use these answered entries as a reference point.
variant_spec | measurement_kind | measured
M24G | protein stability index | 3.5
G12Y | protein stability index | 2.8
N21M | protein stability index | 3.32

Ask: Suppose we examine the variant K15M ; what protein stability index value has been reported?
Reply: 3.69

Ask: Same question for Y5C please.
Reply: 4.08

Ask: Same question for G19F please.
Reply: 2.63

Ask: Same question for I7A please.
Reply: 3.53
